Source of measurements: the supplement of paper PMC6555819

test system: THRa:RXRa (NR concentration 90 nM, RXRa partner concentration 90 nM); assay: PBM binding z-score (relative to random genomic background probes); higher = stronger binding; sequences stand for … in GC…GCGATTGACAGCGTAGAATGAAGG
Range-based classes on measured PBM binding z-score: bin 1: < 2; bin 2: ≥ 2 and < 4; bin 3: ≥ 4

CHAIN | LABEL
ACTAGCATGCCAAGTTTGGGTCACTCAAACAAAG | bin 2
AGTCAAAGTTCATCTAGGGAACGTAAGATATGCT | bin 2
ACAACGAGGGCACGCTGAGTTGATAGCAGAGTAG | bin 1
AGAATGAGGTTATTATGATCAGGGAATTGCGGTC | bin 2
CAAACTAGGTCACAGAGGTCAAAGCCCGTGCGTA | bin 3
TTACCAAGGTGGGCTGAGGTCGTTGATCCAACTC | bin 2
CCTTACTGGTCAAGGTTATAGCACGGGTGGTACG | bin 1
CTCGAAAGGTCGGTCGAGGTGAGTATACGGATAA | bin 3

---

test system: PPARg homodimer (NR concentration 180 nM); assay: PBM binding z-score (relative to random genomic background probes); higher = stronger binding; sequences stand for … in GC…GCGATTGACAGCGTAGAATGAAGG

CHAIN | TARGET_ENTITY | PBM binding z-score
TAATATAGGTAATACAGGTGAAAGTCGGCATCTA | PPARg homodimer (NR concentration 180 nM) | 1.32
CAAACTAGGTCTAAGGTCAAAGTCGAGCCAACCA | PPARg homodimer (NR concentration 180 nM) | 2.46
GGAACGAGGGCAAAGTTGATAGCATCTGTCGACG | PPARg homodimer (NR concentration 180 nM) | -0.0124
ATCGAAAGGTCGAGGTCAGTATAGAGAAAGGGAA | PPARg homodimer (NR concentration 180 nM) | 3.42
ACTAGCAGGCCAAGTTTGGGTCACTGAAACAAAG | PPARg homodimer (NR concentration 180 nM) | 0.506
ACTAGCAGGCCAAGGGTCCCTCAAGATTAGTCCG | PPARg homodimer (NR concentration 180 nM) | -0.0936
CCTAGTTGGTCGAGGTCACACACGCTATAGGTAC | PPARg homodimer (NR concentration 180 nM) | 3.81
ACTAGCAGGCCAAGTTTGGGCCACTCAAACAAAG | PPARg homodimer (NR concentration 180 nM) | -1.66
TCTATTAGTTCATTAGGGCAACCGAAACAGCGGA | PPARg homodimer (NR concentration 180 nM) | 1.3
CGAACTAGGTTATTGACAGGACAGTGAATAGTAA | PPARg homodimer (NR concentration 180 nM) | 0.855
TAGCCTAGGTCTTTCAGGGGCCAGTATAGAAAGC | PPARg homodimer (NR concentration 180 nM) | -0.27
ATCGATAGGTCGAAGGTGAGTATACCCACCCGAA | PPARg homodimer (NR concentration 180 nM) | 0.323
CGTACGAGGGCATGAGTTGATAGCAAATGCCGAT | PPARg homodimer (NR concentration 180 nM) | 0.331
AATACACGGTCATCGTAGGCCAGAGTACGCACAG | PPARg homodimer (NR concentration 180 nM) | 0.841
CGTCAAATTTCAAGGTAACGTAACAGAAAGCAGC | PPARg homodimer (NR concentration 180 nM) | 0.422
CAAACTAGGTCACCGGAAGGACAAAGTCCGCATG | PPARg homodimer (NR concentration 180 nM) | 2.4
CCGACAGGGGCAAAGGTTACCATACTCAGTACGA | PPARg homodimer (NR concentration 180 nM) | 1.78
AGGCAAAGTTCATCTAGGTAACGTAAGATATGCT | PPARg homodimer (NR concentration 180 nM) | 3.08
CCGACTGCGGCAAAGGTTACCATACTCAGTACGA | PPARg homodimer (NR concentration 180 nM) | 0.843
TCTTGTAGTTCAAGCAGGTTAAGAAAGCCTGAGT | PPARg homodimer (NR concentration 180 nM) | 0.815
GCTAGTTGGTCAGTAAGAGGTCACACACCGGTCG | PPARg homodimer (NR concentration 180 nM) | 2.96
TATACAGGGTCAACGGCCAGAGTACGAATGTCGA | PPARg homodimer (NR concentration 180 nM) | 4.05
CCTACTGGGCCATTCAGAGGTCATTAATCATATG | PPARg homodimer (NR concentration 180 nM) | 2.11
AGTCAAAGTTCAGGACGAGGTAACGTACAGCACG | PPARg homodimer (NR concentration 180 nM) | 1.59
CCTGCTAGGTCAATAGTCAGCTAAAGCAGCTCGC | PPARg homodimer (NR concentration 180 nM) | 0.586
TCATATAGGTAAAAGGTGGAAGTCGGTGTGGTAA | PPARg homodimer (NR concentration 180 nM) | 2.35
ACTAGTTGGTCAGCCGAGGTCACACACAATTCGG | PPARg homodimer (NR concentration 180 nM) | 3.29
CCTTACGGGTCACTCCAGGTTATAGCCTCGGAGT | PPARg homodimer (NR concentration 180 nM) | 1.18
ATCTAAAGGTCGTGAGGTGAGTATACAGAAAGGC | PPARg homodimer (NR concentration 180 nM) | 2.21
CGTCCAAGGTCAAGGTAAGTGAAAGAGACTCGAA | PPARg homodimer (NR concentration 180 nM) | 3.18
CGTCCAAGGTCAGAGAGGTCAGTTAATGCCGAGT | PPARg homodimer (NR concentration 180 nM) | 6.18
CCTAGCAAGCCAATCTGGGTCACTCAAGGCTTGA | PPARg homodimer (NR concentration 180 nM) | 0.973
ATCTCTAGGTAACCTAGTTCAGTGAATGCCGAAC | PPARg homodimer (NR concentration 180 nM) | 1.02
CGAACTAGGTCATTGACACGACAGTGAATAGTAA | PPARg homodimer (NR concentration 180 nM) | 2.25
GCTTGTAGATCAAGGTTAAGAGAGACTAAGCTAA | PPARg homodimer (NR concentration 180 nM) | 0.193
TCCAGCAGGCCAGAGGGTCACTCAAGAGGTACGG | PPARg homodimer (NR concentration 180 nM) | 0.577
AGAACGAGGGCACGCTGAGTTGATAGAAGAGTAG | PPARg homodimer (NR concentration 180 nM) | 0.193

---

system: LXRb:RXRa (NR concentration 270 nM, RXRa partner concentration 90 nM); experiment: PBM binding z-score (relative to random genomic background probes); higher = stronger binding; sequences stand for … in GC…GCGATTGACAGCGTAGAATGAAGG
Reported PBM binding z-score by item:

CHAIN | PBM binding z-score
GCAGACAGGTGAAACGTAGGTAACTCAGGGTGGC | -0.409
TCTTGTTGATCAACAGGAGGTTAAGAAAGATCGA | 0.962
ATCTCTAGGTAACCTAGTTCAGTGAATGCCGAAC | 1.26
TAGCCTAGGTCATTCAGGGGCCAGTATAGAAAGC | 3.2
TAACCTAGGTCATGCGGGCCAGTATAGTGTCGGC | 2.55
TCATATAGGTAAACGTGAAAGTCGAACGATATGA | 0.164
TCCAGTAGGTTAGTCGGGGCATTCAGCCAACATA | 0.794
CCTATTAGTTGACCATTAGGGCAACCGAAGCTCG | 0.224
CGTCCAAGGTCAGCAGGTCAGTGTAAGCGACGTG | 3.05
TCGAGTAGGTTACGAATGGGGCATTCAGCTTTCT | 0.42
ATCTCTAGGTAAGGATAGTTCAGTGAATGCAAAT | 0.271
CCAAGCAGGCCAGGGTCACTCAAGCATTTCGCTT | 1.95
TAGCCTAGGTCATGGGCCAGTATGCCACGCGAAC | 2.02
ATTCAAAGTTCACTAGGTAACGTAAGATTCAGCT | 3.08
TCTTGTACATCAGCAGGTTAAGAAAGCTGGCCAA | 0.542
CGAACTAGGTCATTGACAGGACGGTGAATAGTAA | 1.47
TCTTGTAGATCAATAGAGGATAAGAAAGTGCGCT | -0.13
TGAATGAGGTTATAAGATGAGGGAACGTTGCAAA | 1.09
TTACCAACGTGAAAGGTCGTTGATGCACGCCTTG | 1.66
CCAGACAGGTGAGAAGGTAATTCAGCCTCGATTA | 0.0559
TTACCAAGGTGGAGGTCGTTGATCCCTCTGTAGA | 1.66
GCTGCTAGGTCAACTGATGTTCAGCTAAAGCTCG | 1.95
GCTTGTAGATCAAGGTTACGAAAGACTAAGCTAA | 0.883
